Task for the reader: assign each of the following molecules its reported IC50.
ASSAY_TARGET: Cholinesterase (Equus caballus, UniProt P81908)
Sequence (P81908 whole entry): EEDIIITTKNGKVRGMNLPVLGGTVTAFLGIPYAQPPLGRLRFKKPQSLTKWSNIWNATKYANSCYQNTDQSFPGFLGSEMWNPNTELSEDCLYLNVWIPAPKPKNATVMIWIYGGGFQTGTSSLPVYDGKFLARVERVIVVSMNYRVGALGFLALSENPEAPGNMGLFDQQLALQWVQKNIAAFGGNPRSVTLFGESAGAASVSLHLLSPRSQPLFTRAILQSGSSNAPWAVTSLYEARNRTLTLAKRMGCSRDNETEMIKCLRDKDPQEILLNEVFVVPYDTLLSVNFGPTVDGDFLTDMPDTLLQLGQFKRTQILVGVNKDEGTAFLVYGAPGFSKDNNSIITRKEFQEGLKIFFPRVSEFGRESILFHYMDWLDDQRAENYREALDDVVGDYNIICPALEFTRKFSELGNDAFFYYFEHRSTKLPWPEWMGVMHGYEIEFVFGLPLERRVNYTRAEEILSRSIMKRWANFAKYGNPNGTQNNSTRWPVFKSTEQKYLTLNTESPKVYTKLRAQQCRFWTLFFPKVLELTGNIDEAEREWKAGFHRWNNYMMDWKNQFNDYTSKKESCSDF
Please reply with the bare figure in µM and do not write the unit itself.

Task item: Need IC50, item Cc1c(OCCCN2CCCCC2C)ccc2c(=O)cc(-c3ccccc3)oc12 (stereo unspecified)
Reply: 5.84

Task item: Need IC50, item Cc1c(OCCCN2CCC(O)CC2)ccc2c(=O)cc(-c3ccccc3)oc12
Reply: 4.12

Task item: Need IC50, item Cc1c(OCCN2CCC(O)CC2)ccc2c(=O)cc(-c3ccccc3)oc12
Reply: 3.21

Task item: Need IC50, item Cc1c(OCCCCCN2CCCC2)ccc2c(=O)cc(-c3ccccc3)oc12
Reply: 1.91
